# system_under_test: T1, soluble monomeric human MUC16, truncated format encompassing the last five SEA domains of Mucin-16 (human)
# T1 construct: also called hMUC16.mmh; MUC16 "nub"
# T1 chain: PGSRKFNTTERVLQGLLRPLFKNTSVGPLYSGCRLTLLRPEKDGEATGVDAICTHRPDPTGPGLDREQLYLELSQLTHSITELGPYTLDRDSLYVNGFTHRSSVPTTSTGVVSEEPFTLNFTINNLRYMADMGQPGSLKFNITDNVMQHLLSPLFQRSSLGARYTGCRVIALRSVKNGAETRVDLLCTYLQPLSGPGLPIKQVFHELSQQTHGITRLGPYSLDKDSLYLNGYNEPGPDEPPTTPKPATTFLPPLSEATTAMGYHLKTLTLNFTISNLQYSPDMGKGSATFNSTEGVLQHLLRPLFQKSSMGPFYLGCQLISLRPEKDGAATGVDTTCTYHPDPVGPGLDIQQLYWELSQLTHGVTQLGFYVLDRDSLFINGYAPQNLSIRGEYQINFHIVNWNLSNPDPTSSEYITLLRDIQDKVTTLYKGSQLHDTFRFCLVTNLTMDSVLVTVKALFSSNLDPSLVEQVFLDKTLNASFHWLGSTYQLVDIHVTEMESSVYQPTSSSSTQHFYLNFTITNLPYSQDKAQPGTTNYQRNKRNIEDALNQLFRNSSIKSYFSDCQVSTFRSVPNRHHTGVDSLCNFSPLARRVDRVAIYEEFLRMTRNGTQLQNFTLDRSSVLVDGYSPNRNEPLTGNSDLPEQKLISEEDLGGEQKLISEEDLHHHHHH
# measurement_description: SPR Biacore, antibody captured, soluble monomeric hMUC16.mmh injected, 25C
Exercise: for every item that follows, state its recorded pKd.
pKd (log units): -log10 of the concentration in mol/L.

Prompt: What value of pKd has been reported for the following binder? H1H8808P (antibody, human IgG1, V domains shown, Human IgG1 (H1H)) VH: QVQLVESGGGVVQPGRSLRLSCVASGFTFSNYGIHWVRQAPGKGLEWVAVISDDGSFKFYADSVKGRFTISRDNSKNTLYLQMNSLRVEDSAVYHCAKWQHNWNDGGFDYWGQGTLVTVSS VL: EIVLTQSPDTLSLSPGERATLSCRASQSLSSNYLAWYRQKPGQAPRLLIYGISSRATGIPDRFSGSGSGTDFTLTISRLEPEDFAVYYCQQYGSSPWTFGQGTKVEIK
Response: 7.28

Prompt: Bench note: what pKd did H1H8755P (antibody, human IgG1, V domains shown, Human IgG1 (H1H)) VH: EVQLVESGGGLVQPGRSLRLSCAASGFTFNDYAMHWVRQSPGKGLEWVSGIDWNGGSIDYADSVKGRFTISRDTAKNSLYLQMNSLKVEDTALYYCAKDIGHWNYIGGMDVWGQGTTVTVSS VL: DIQMTQSPSSLSASVGDRVTITCRASQSINIYLNWYQQKPGKAPKFLIYAASSLQTGVPSRFSGSGSGTDFTLTISSLEPEDFATYYCQHSYSTPPITFGQGTRLEIK show?
Response: 9.54

Prompt: Find the recorded pKd belonging to H1H8794P (antibody, V domains shown, Human IgG1 (H1H)) VH: QVQLVESGGGLVKPGGSLRLSCAASGFTFRDYSMSWIRQAPGKGLEWVSYVTFFNSAIYYADSVKGRFTISRDNAKNSLYLQMNSLRAEDTAVYYCAREREPIVGGFDYWGQGTLVTVSS VL: DIQMTQSPSSLSASVGDRVTITCRASQSINSYLNWYQQKPGKAPKLLIYAASSLQGGVPSRFSGGGSGTDFTLTITSLQPEDFATFYCQQSYSSPPITFGQGTRLEIK and report it.
Response: 9.11

Prompt: I would be grateful if you could share the reported pKd for H1H8783P (antibody, human IgG1, V domains shown, Human IgG1 (H1H)) VH: QVQLVESGGGVVQPGRSLRLSCAASGFTFSDHAMHWVRQAPGKGLEWVAVISYHGTDKQYGDSVKGRFTISRDNSKNALYLQMNSLRPEDTAMYYCAKDGYDFWNAYSLFDYWGQGTLVTVSS VL: DIQMTQSPSSLSASVGDRVTITCRASQSISNYLNWYQQKPGKAPKLLIYTASSLLSGVPSRFSGSGSGTDFTLTISSLQPEDFATYYCQQSYSTPPITFGQGTRLEIK .
Response: 9.21

Origin of values: patent US20180112001A1
